- system under test: NADPH oxidase 4 (Homo sapiens)
- assay remarks: Inhibition of NOX4 expressed in HEK293 FS cells at 10 uM assessed as H2O2 production by H2O2/Tyr/LPO assay
- Format: cell-based
assay metric: inhibition (%)

>  <smiles input>
O=c1c2cc(O)c(O)cc2c2cc(O)c(O)cc2n1Cc1cccc([N+](=O)[O-])c1

>  <value measured>
101

$$$$
>  <smiles input>
O=C1Nc2ccc([N+](=O)[O-])cc2/C1=C/c1ccc(O)c(O)c1

>  <value measured>
102

$$$$
>  <smiles input>
O=c1c2cc(O)c(O)cc2c2cc(O)c(O)cc2n1Cc1ccccc1S(=O)(=O)c1ccccc1

>  <value measured>
95

$$$$
>  <smiles input>
CC(C)c1cc(/C=C2\C(=O)Nc3ccccc32)cc(C(C)C)c1O

>  <value measured>
102

$$$$
>  <smiles input>
COC(=O)c1cc(NCc2ccccc2O)ccc1O

>  <value measured>
91

$$$$
>  <smiles input>
O=C(NCCc1ccc(O)c(O)c1)C(=O)Nc1cccc([N+](=O)[O-])c1

>  <value measured>
104

$$$$
>  <smiles input>
C=CCN(CC=C)C(=S)/N=C1\C(=O)Nc2cc(C)c(O)c(C)c21

>  <value measured>
100

$$$$
>  <smiles input>
O=C(O)c1cc(NCc2ccccc2O)ccc1O

>  <value measured>
89

$$$$
>  <smiles input>
COc1cc(CCNC(=O)C(=O)Nc2cccc(N)c2)ccc1O

>  <value measured>
104

$$$$
>  <smiles input>
COc1cc(O)cc2oc(-c3ccc(O)c(O)c3)c(O)c(=O)c12

>  <value measured>
100

$$$$

----------
- system under test: NADPH oxidase 4 (Homo sapiens)
- assay remarks: Inhibition of NOX4 expressed in HEK293 FS cells at 10 uM assessed as H2O2 production by H2O2/Tyr/LPO assay
- Type: cell-based
assay metric: inhibition (%)

>  <smiles input>
O=C(N/N=C/c1ccc(O)c(O)c1)C(=O)N/N=C/c1ccc(O)c(O)c1

>  <system under test>
NADPH oxidase 4 (Homo sapiens)

>  <value measured>
105

$$$$
>  <smiles input>
COc1cc(/C=C2\C(=O)Nc3ccc(NC(C)=O)cc32)ccc1O

>  <system under test>
NADPH oxidase 4 (Homo sapiens)

>  <value measured>
104

$$$$
>  <smiles input>
O=c1c(O[C@H]2O[C@H](CO)[C@@H](O)[C@H](O)[C@H]2O)c(-c2ccc(O)c(O)c2)oc2cc(O)cc(O)c12

>  <system under test>
NADPH oxidase 4 (Homo sapiens)

>  <value measured>
105

$$$$
>  <smiles input>
O=C(N/N=C/c1cccc(O)c1O)C(=O)N/N=C/c1cccc(O)c1O

>  <system under test>
NADPH oxidase 4 (Homo sapiens)

>  <value measured>
103

$$$$
>  <smiles input>
O=c1c2cc(O)c(O)cc2c2cc(O)c(O)cc2n1Cc1cc([N+](=O)[O-])ccc1O

>  <system under test>
NADPH oxidase 4 (Homo sapiens)

>  <value measured>
104

$$$$
>  <smiles input>
O=c1c(O)c(-c2ccc(O)cc2)oc2cc(O)cc(O)c12

>  <system under test>
NADPH oxidase 4 (Homo sapiens)

>  <value measured>
105

$$$$
>  <smiles input>
O=c1c2cc(O)c(O)cc2c2cc(O)c(O)cc2n1Cc1ccc([N+](=O)[O-])cc1

>  <system under test>
NADPH oxidase 4 (Homo sapiens)

>  <value measured>
93

$$$$
>  <smiles input>
Nc1ccc(Nc2ncnc3c2sc2ccc(N)cc23)cc1

>  <system under test>
NADPH oxidase 4 (Homo sapiens)

>  <value measured>
101

$$$$
>  <smiles input>
O=c1c(O)c(-c2ccc(O)c(O)c2)oc2cc(O)cc(O)c12

>  <system under test>
NADPH oxidase 4 (Homo sapiens)

>  <value measured>
94

$$$$

----------
- assay remarks: Cytotoxicity against human free style HEK293 cells after 72 hrs
- Type: cell-based
- cond: FreeStyle HEK293 cells
Examples of molecules with documented cytotoxicity at 72 h follow.

>  <smiles input>
O=c1c(O)c(-c2ccc(O)c(O)c2)oc2cc(O)cc(O)c12

>  <cytotoxicity at 72 h, %>
102

$$$$
>  <smiles input>
Nc1cccc(Nc2ncnc3c2sc2ccc(N)cc23)c1

>  <cytotoxicity at 72 h, %>
106

$$$$
>  <smiles input>
O=C(O)c1cc(NCc2ccccc2O)ccc1O

>  <cytotoxicity at 72 h, %>
102

$$$$
>  <smiles input>
C=CCN(CC=C)C(=S)N=C1C(=O)Nc2cc(C)c(O)c(C)c21

>  <cytotoxicity at 72 h, %>
97.8

$$$$
>  <smiles input>
O=c1cc(-c2ccc(O)c(O)c2)oc2cc(O)cc(O)c12

>  <cytotoxicity at 72 h, %>
110

$$$$
>  <smiles input>
O=c1c(O)c(-c2ccc(O)cc2)oc2cc(O)cc(O)c12

>  <cytotoxicity at 72 h, %>
119

$$$$
>  <smiles input>
COC(=O)c1cc(NCc2ccccc2O)ccc1O

>  <cytotoxicity at 72 h, %>
106

$$$$
>  <smiles input>
O=C(NCCc1ccc(O)c(O)c1)C(=O)Nc1cccc([N+](=O)[O-])c1

>  <cytotoxicity at 72 h, %>
74.9

$$$$
>  <smiles input>
O=C(O)c1cc(NCc2cc(O)ccc2O)ccc1O

>  <cytotoxicity at 72 h, %>
88.7

$$$$
>  <smiles input>
COc1cc(CCNC(=O)C(=O)Nc2cccc(N)c2)ccc1O

>  <cytotoxicity at 72 h, %>
82.4

$$$$
>  <smiles input>
O=c1cc(-c2ccc(O)cc2)oc2cc(O)cc(O)c12

>  <cytotoxicity at 72 h, %>
108

$$$$
>  <smiles input>
O=c1c2cc(O)c(O)cc2c2cc(O)c(O)cc2n1Cc1ccc([N+](=O)[O-])cc1

>  <cytotoxicity at 72 h, %>
108

$$$$
>  <smiles input>
CC(C)c1cc(/C=C2\C(=O)Nc3ccccc32)cc(C(C)C)c1O

>  <cytotoxicity at 72 h, %>
18.7

$$$$
>  <smiles input>
O=c1c2cc(O)c(O)cc2c2cc(O)c(O)cc2n1Cc1cccc([N+](=O)[O-])c1

>  <cytotoxicity at 72 h, %>
112

$$$$
>  <smiles input>
O=C(N/N=C/c1ccc(O)c(O)c1)C(=O)N/N=C/c1ccc(O)c(O)c1

>  <cytotoxicity at 72 h, %>
99.5

$$$$
>  <smiles input>
N#Cc1ccccc1Cn1c(=O)c2cc(O)c(O)cc2c2cc(O)c(O)cc21

>  <cytotoxicity at 72 h, %>
108

$$$$
>  <smiles input>
O=C1Nc2ccc([N+](=O)[O-])cc2/C1=C/c1ccc(O)c(O)c1

>  <cytotoxicity at 72 h, %>
123

$$$$
>  <smiles input>
O=c1c2cc(O)c(O)cc2c2cc(O)c(O)cc2n1Cc1cc([N+](=O)[O-])ccc1O

>  <cytotoxicity at 72 h, %>
90.6

$$$$
>  <smiles input>
Nc1ccc(Nc2ncnc3c2sc2ccc(N)cc23)cc1

>  <cytotoxicity at 72 h, %>
60.5

$$$$
>  <smiles input>
O=C(N/N=C/c1cccc(O)c1O)C(=O)N/N=C/c1cccc(O)c1O

>  <cytotoxicity at 72 h, %>
67.2

$$$$
>  <smiles input>
COc1cc(/C=C2\C(=O)Nc3ccc(NC(C)=O)cc32)ccc1O

>  <cytotoxicity at 72 h, %>
112

$$$$
>  <smiles input>
COc1cc(O)cc2oc(-c3ccc(O)c(O)c3)c(O)c(=O)c12

>  <cytotoxicity at 72 h, %>
121

$$$$
>  <smiles input>
O=c1c2cc(O)c(O)cc2c2cc(O)c(O)cc2n1Cc1ccccc1S(=O)(=O)c1ccccc1

>  <cytotoxicity at 72 h, %>
113

$$$$

----------
- system under test: NADPH oxidase 4 (Homo sapiens)
- assay remarks: Inhibition of NOX4 expressed in HEK293 FS cells assessed as H2O2 production by H2O2/Tyr/LPO assay
Examples of compounds with documented IC50 follow.

>  <smiles input>
CC(C)c1cc(/C=C2\C(=O)Nc3ccccc32)cc(C(C)C)c1O

>  <IC50 [nM]>
630

$$$$
>  <smiles input>
O=c1cc(-c2ccc(O)cc2)oc2cc(O)cc(O)c12

>  <IC50 [nM]>
1130

$$$$
>  <smiles input>
O=C(O)c1cc(NCc2cc(O)ccc2O)ccc1O

>  <IC50 [nM]>
1340

$$$$
>  <smiles input>
O=c1c2cc(O)c(O)cc2c2cc(O)c(O)cc2n1Cc1ccc([N+](=O)[O-])cc1

>  <IC50 [nM]>
1580

$$$$
>  <smiles input>
O=C(NCCc1ccc(O)c(O)c1)C(=O)Nc1cccc([N+](=O)[O-])c1

>  <IC50 [nM]>
1640

$$$$

----------
- system under test: NADPH oxidase 4 (Homo sapiens, UniProt Q9NPH5)
- Sequence (Q9NPH5 whole entry): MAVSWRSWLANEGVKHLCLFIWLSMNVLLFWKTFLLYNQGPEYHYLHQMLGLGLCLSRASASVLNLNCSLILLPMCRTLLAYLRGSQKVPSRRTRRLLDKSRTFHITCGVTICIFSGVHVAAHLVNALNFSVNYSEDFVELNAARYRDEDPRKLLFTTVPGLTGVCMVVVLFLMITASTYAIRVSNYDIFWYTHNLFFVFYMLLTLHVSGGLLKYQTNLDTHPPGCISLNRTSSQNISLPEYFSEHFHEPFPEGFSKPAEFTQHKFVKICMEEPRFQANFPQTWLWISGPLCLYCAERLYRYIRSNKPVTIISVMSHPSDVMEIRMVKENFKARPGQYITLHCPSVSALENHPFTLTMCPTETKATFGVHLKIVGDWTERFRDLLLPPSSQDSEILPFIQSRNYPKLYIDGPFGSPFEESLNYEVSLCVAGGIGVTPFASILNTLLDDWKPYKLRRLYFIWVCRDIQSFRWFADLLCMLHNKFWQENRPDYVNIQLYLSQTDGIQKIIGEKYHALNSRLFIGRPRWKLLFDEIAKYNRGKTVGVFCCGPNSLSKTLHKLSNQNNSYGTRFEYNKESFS
- assay remarks: Inhibition of NOX4 expressed in HEK293 FS cells assessed as H2O2 production by H2O2/Tyr/LPO assay
Binary call on IC50 with cut-off 1000 nM: strictly below means y, and equality or higher means n.

>  <compound>
O=c1c(O)c(-c2ccc(O)c(O)c2)oc2cc(O)cc(O)c12 [QUERCETIN]

>  <discrete label>
y

$$$$
>  <compound>
Nc1ccc(Nc2ncnc3c2sc2ccc(N)cc23)cc1

>  <discrete label>
n

$$$$
>  <compound>
O=C(N/N=C/c1ccc(O)c(O)c1)C(=O)N/N=C/c1ccc(O)c(O)c1

>  <discrete label>
n

$$$$
>  <compound>
O=c1c2cc(O)c(O)cc2c2cc(O)c(O)cc2n1Cc1cc([N+](=O)[O-])ccc1O

>  <discrete label>
y

$$$$
>  <compound>
O=C(O)c1cc(NCc2ccccc2O)ccc1O

>  <discrete label>
y

$$$$
>  <compound>
O=c1cc(-c2ccc(O)c(O)c2)oc2cc(O)cc(O)c12 [LUTEOLIN]

>  <discrete label>
y

$$$$
>  <compound>
COc1cc(O)cc2oc(-c3ccc(O)c(O)c3)c(O)c(=O)c12

>  <discrete label>
y

$$$$
>  <compound>
O=C1Nc2ccc([N+](=O)[O-])cc2/C1=C/c1ccc(O)c(O)c1

>  <discrete label>
n

$$$$
>  <compound>
O=C(N/N=C/c1cccc(O)c1O)C(=O)N/N=C/c1cccc(O)c1O

>  <discrete label>
y

$$$$
>  <compound>
COc1cc(/C=C2\C(=O)Nc3ccc(NC(C)=O)cc32)ccc1O

>  <discrete label>
n

$$$$
>  <compound>
O=c1c(O)c(-c2ccc(O)cc2)oc2cc(O)cc(O)c12 [KAEMPFEROL]

>  <discrete label>
n

$$$$
>  <compound>
Nc1cccc(Nc2ncnc3c2sc2ccc(N)cc23)c1

>  <discrete label>
y

$$$$
>  <compound>
COC(=O)c1cc(NCc2ccccc2O)ccc1O

>  <discrete label>
n

$$$$
>  <compound>
COc1cc(CCNC(=O)C(=O)Nc2cccc(N)c2)ccc1O

>  <discrete label>
n

$$$$
>  <compound>
O=c1c2cc(O)c(O)cc2c2cc(O)c(O)cc2n1Cc1cccc([N+](=O)[O-])c1

>  <discrete label>
y

$$$$
>  <compound>
O=c1c2cc(O)c(O)cc2c2cc(O)c(O)cc2n1Cc1ccccc1S(=O)(=O)c1ccccc1

>  <discrete label>
n

$$$$
>  <compound>
N#Cc1ccccc1Cn1c(=O)c2cc(O)c(O)cc2c2cc(O)c(O)cc21

>  <discrete label>
y

$$$$
